# Measured Target: T1, HLA-A*0201 on T2 cells (human)
# T1 construct: whole, on cells; also called HLA-A2
# Experiment Summary: T2 cell binding assay, flow cytometry
Square brackets hold non-standard residues; d marks the D form. Ends that are not written are not given here. Nle = CCCC[C@H](N)C(=O)O
Measure: EC50 (µM)

[a] FVSEKLFYV [SSX2 41-49 (K41F, A42V, I46L)]
[b] FVS[Nle]KIFYV (also called FVS(Nle)KIFYV) [SSX2 41-49 (K41F, A42V, E44Nle)]
Endpoint returns whichever of a and b has the numerically higher EC50. Returns: label corresponding to the selected item.
b
